The reported numbers originate from ChEMBL document CHEMBL1153798.

Test system: Human immunodeficiency virus 1
assay remarks: Antiviral activity against HIV1 R8 infected human MT4 cells assessed as drug level required for 95% inhibition in the presence of 50% normal human serum
Assay type: functional
value kind: Activity (nM)
Give bare numbers, in nM.

Give Activity for each of the items listed below.
1. CS(=O)(=O)c1ccc(NC(=O)CSC(=O)N2CCCc3cc(Cl)cc(Cl)c32)c(Cl)c1
2. NS(=O)(=O)c1ccc(NC(=O)CSC(=O)N2CCCc3cc(Cl)cc(Cl)c32)c(Cl)c1

RESULT:
1. 5.7
2. 33

Give Activity for each of the items listed below.
1. NCCCNC(=O)c1ccc(NC(=O)CSC(=O)N2CCCc3cc(Cl)cc(Cl)c32)c(Cl)c1
2. O=C(CSC(=O)N1CCCc2cc(Cl)cc(Cl)c21)Nc1ccc(C(=O)NCc2ccccc2)cc1Cl

RESULT:
1. 34
2. 307

###

System: Human immunodeficiency virus 1
assay remarks: Antiviral activity against HIV1 carrying reverse transcriptase […] mutant infected human MT4 cells by phenoscreen assay in the presence of 40 percent normal human serum
Type: functional, organism-based
protocol conditions: Human immunodeficiency virus 1, MT4
value kind: pIC50
Give bare numbers, as −log10 of the molar value.

Give pIC50 for each of the items listed below.
1. NS(=O)(=O)c1ccc(NC(=O)CSC(=O)N2CCCc3cc(Cl)cc(Cl)c32)c(Cl)c1
2. CS(=O)(=O)c1ccc(NC(=O)CSC(=O)N2CCCc3cc(Cl)cc(Cl)c32)c(Cl)c1

RESULT:
1. 8.26
2. 7.30

###

Tested on: Human immunodeficiency virus 1
assay remarks: Antiviral activity against HIV1 carrying reverse transcriptase Y181C mutant infected human MT4 cells by phenoscreen assay in the presence of 40 percent normal human serum
Type: functional, organism-based
protocol conditions: Human immunodeficiency virus 1, MT4
value kind: pIC50
Answers are plain numbers, as −log10 of the molar value.

Give pIC50 for each of the items listed below.
1. CS(=O)(=O)c1ccc(NC(=O)CSC(=O)N2CCCc3cc(Cl)cc(Cl)c32)c(Cl)c1
2. NS(=O)(=O)c1ccc(NC(=O)CSC(=O)N2CCCc3cc(Cl)cc(Cl)c32)c(Cl)c1

RESULT:
1: 7.06; 2: 7.77

###

assay remarks: Inhibition of HIV1 reverse transcriptase K103 mutant
pIC50: −log10 of the molar value.
I would appreciate it if you labelled entries YES when pIC50 is 8 or higher, otherwise NO.

compound	assigned category
NS(=O)(=O)c1ccc(NC(=O)C2CC2C(=O)N2CCCc3cc(Cl)cc(Cl)c32)c(Cl)c1 (single isomer, unassigned; 16)	NO
Cc1cccc2c1N(C(=O)SCC(=O)Nc1ccc(S(N)(=O)=O)cc1Cl)CCC2	YES
CS(=O)(=O)c1ccc(NC(=O)CSC(=O)N2CCCc3cc(Cl)cc(Cl)c32)c(Cl)c1	YES
NS(=O)(=O)c1ccc(NC(=O)C2CC2C(=O)N2CCCc3cc(Cl)cc(Cl)c32)c(Cl)c1 (single isomer, unassigned; 17)	NO
NS(=O)(=O)c1ccc(NC(=O)CSC(=O)N2CCCc3cccc(Cl)c32)c(Cl)c1	YES

QUERY: Please tell me: is the compound NS(=O)(=O)c1ccc(NC(=O)COC(=O)N2CCCc3cc(Cl)cc(Cl)c32)c(Cl)c1 at or over 8 in terms of pIC50?
RESULT: NO

###

Tested on: Human immunodeficiency virus 1
assay remarks: Antiviral activity against HIV1 3B infected human MT4 cells assessed as drug level required for 95% inhibition in the presence of 50% normal human serum
Assay type: functional
value kind: log10(ID95) (log10 of the value in nM)
Annotation: log10 of ID95, nM basis.

smiles record	target of assay	log10(ID95)
N#Cc1ccc(NC(=O)CSC(=O)N2CCCc3cc(Cl)cc(Cl)c32)c(Cl)c1	Human immunodeficiency virus 1	3.10

Give log10(ID95) for each of the items listed below.
1. Cc1ccc2c(c1)CCCN2C(=O)SCC(=O)Nc1ccc(S(N)(=O)=O)cc1Cl
2. NS(=O)(=O)c1ccc(NC(=O)CSC(=O)N2CCCc3cc(Cl)cc(Cl)c32)c(Cl)c1
3. O=C(CSC(=O)N1CCCc2cc(Cl)cc(Cl)c21)Nc1ccccc1Cl
4. Cc1cccc2c1N(C(=O)SCC(=O)Nc1ccc(S(N)(=O)=O)cc1Cl)CCC2
5. NS(=O)(=O)c1ccc(NC(=O)CSC(=O)N2CCCc3cc(Cl)ccc32)c(Cl)c1
6. NS(=O)(=O)c1ccc(NC(=O)CSC(=O)N2CCCc3cccc(Cl)c32)c(Cl)c1

RESULT:
2.60
1.60
2.61
2.34
3.10
1.67

###

For each record, write down the corresponding Activity.
Test system: Human immunodeficiency virus 1
assay remarks: Antiviral activity against HIV1 3B infected human MT4 cells assessed as drug level required for 95% inhibition in the presence of 10% fetal bovine serum
Format: functional
Numbers only, in nM.

compound	unit abbreviation	Activity
NS(=O)(=O)c1ccc(NC(=O)CCC(=O)N2CCCc3cc(Cl)cc(Cl)c32)c(Cl)c1	nM	406
NS(=O)(=O)c1ccc(NC(=O)CNC(=O)N2CCCc3cc(Cl)cc(Cl)c32)c(Cl)c1	nM	562
NS(=O)(=O)c1ccc(NC(=O)C2CC2C(=O)N2CCCc3cc(Cl)cc(Cl)c32)c(Cl)c1 (single isomer, unassigned; 17)	nM	922
NS(=O)(=O)c1ccc(NC(=O)C2CC2C(=O)N2CCCc3cc(Cl)cc(Cl)c32)c(Cl)c1 (single isomer, unassigned; 16)	nM	176

Attention now shifts to the item below.
QUERY: # query: Activity | item NS(=O)(=O)c1ccc(NC(=O)COC(=O)N2CCCc3cc(Cl)cc(Cl)c32)c(Cl)c1 | system: Human immunodeficiency virus 1
RESULT: 187

###

For each record, write down the corresponding pIC50.
Tested on: Human immunodeficiency virus 1
assay remarks: Antiviral activity against HIV1 infected human MT4 cells by phenoscreen assay in the presence of 40 percent normal human serum
Format: functional, organism-based
protocol conditions: Human immunodeficiency virus 1, MT4
Give bare numbers, as −log10 of the molar value.

smiles record	pIC50
NS(=O)(=O)c1ccc(NC(=O)CSC(=O)N2CCCc3cc(Cl)cc(Cl)c32)c(Cl)c1	8.92

Attention now shifts to the item below.
QUERY: What does the data say about its pIC50? Entry: CS(=O)(=O)c1ccc(NC(=O)CSC(=O)N2CCCc3cc(Cl)cc(Cl)c32)c(Cl)c1
RESULT: 8.35

###

For each record, write down the corresponding half-life.
assay remarks: Half life in Beagle dog at 1 mg/kg, po and 0.5 mg/kg, iv
Type: ADME, organism-based, Canis lupus familiaris
protocol conditions: in vivo
Give me the value, and tack the unit on after it.

molecule	half-life
NS(=O)(=O)c1ccc(NC(=O)CSC(=O)N2CCCc3cc(Cl)cc(Cl)c32)c(Cl)c1	4.9 h

Attention now shifts to the item below.
QUERY: What does the data say about its half-life? Entry: NS(=O)(=O)c1ccc(NC(=O)C2CC2C(=O)N2CCCc3cc(Cl)cc(Cl)c32)c(Cl)c1 (single isomer, unassigned; 16)
RESULT: 1.3 h

###

assay remarks: Protein binding in human plasma
Type: ADME, cell-free
protocol conditions: read-out: PB
value kind: fraction unbound

QUERY: What does the data say about its fraction unbound? Entry: Cc1ccc2c(c1)CCCN2C(=O)SCC(=O)Nc1ccc(S(N)(=O)=O)cc1Cl
RESULT: 0.01

###

For each record, write down the corresponding pIC50.
Test system: Human immunodeficiency virus 1
assay remarks: Antiviral activity against HIV1 carrying reverse transcriptase Y188L mutant infected human MT4 cells by phenoscreen assay in the presence of 40 percent normal human serum
Type: functional, organism-based
protocol conditions: Human immunodeficiency virus 1, MT4
pIC50: −log10 of the molar value.

smiles record	pIC50
NS(=O)(=O)c1ccc(NC(=O)CSC(=O)N2CCCc3cc(Cl)cc(Cl)c32)c(Cl)c1	< 6.00

Attention now shifts to the item below.
QUERY: What does the data say about its pIC50? Entry: CS(=O)(=O)c1ccc(NC(=O)CSC(=O)N2CCCc3cc(Cl)cc(Cl)c32)c(Cl)c1
RESULT: < 6.60
